Assay Remarks: Plasma concentration in rat at 10 mg/kg, po after 0.5 hrs
Format: ADME, organism-based
Set-up: dose 10 mg/kg, route oral
Condition Notes: Wistar Han
Observation Type: concentration at 0.5 h (nM)
Use nM as the unit, but write only the number.

q: Report measured concentration at 0.5 h; entry is Cc1nc2cc(C(C)C)c(-c3ccc(Cl)c(OCC4CC4)c3)cc2c(=O)[nH]1
a: 1460

---

Assay Remarks: Plasma concentration in rat at 1 mg/kg, iv after 0.083 hrs
Assay type: ADME, organism-based
Design: dose 1 mg/kg, route intravenous
Condition Notes: Wistar Han
Observation Type: concentration at 0.083 h (nM)
Use nM as the unit, but write only the number.

q: Report measured concentration at 0.083 h; entry is Cc1nc2cc(C(C)C)c(-c3ccc(Cl)c(OCC4CC4)c3)cc2c(=O)[nH]1
a: 2650

---

Assay Remarks: Plasma concentration in rat at 1 mg/kg, iv after 6 hrs
Type: ADME, organism-based
Parameters: dose 1 mg/kg, route intravenous
Condition Notes: Wistar Han
Observation Type: concentration at 6 h (nM)
Use nM as the unit, but write only the number.

q: Report measured concentration at 6 h; entry is Cc1nc2cc(C(C)C)c(-c3ccc(Cl)c(OCC4CC4)c3)cc2c(=O)[nH]1
a: 488

---

Assay Remarks: Plasma concentration in rat at 1 mg/kg, iv after 0.033 hrs
Type: ADME, organism-based
Parameters: dose 1 mg/kg, route intravenous
Condition Notes: Wistar Han
Observation Type: concentration at 0.033 h

q: Report measured concentration at 0.033 h; entry is Cc1nc2cc(C(C)C)c(-c3ccc(Cl)c(OCC4CC4)c3)cc2c(=O)[nH]1
a: 3.54 µM

---

Assay Remarks: Plasma concentration in rat at 10 mg/kg, po after 1.5 hrs
Type: ADME, organism-based
Design: dose 10 mg/kg, route oral
Condition Notes: Wistar Han
Observation Type: concentration at 1.5 h (µM)
Use µM as the unit, but write only the number.

q: Report measured concentration at 1.5 h; entry is Cc1nc2cc(C(C)C)c(-c3ccc(Cl)c(OCC4CC4)c3)cc2c(=O)[nH]1
a: 3.72

---

Assay Remarks: Plasma concentration in rat at 3 mg/kg, po after 1 hrs
Type: ADME, organism-based
Design: dose 3 mg/kg, route oral
Condition Notes: Wistar Han
Observation Type: concentration at 1 h (µM)
Use µM as the unit, but write only the number.

q: Report measured concentration at 1 h; entry is Cc1nc2cc(C(C)C)c(-c3ccc(Cl)c(OCC4CC4)c3)cc2c(=O)[nH]1
a: 1.53

---

Assay Remarks: Plasma concentration in rat at 3 mg/kg, po after 6 hrs
Type: ADME, organism-based
Parameters: dose 3 mg/kg, route oral
Condition Notes: Wistar Han
Observation Type: concentration at 6 h (nM)
Use nM as the unit, but write only the number.

q: Report measured concentration at 6 h; entry is Cc1nc2cc(C(C)C)c(-c3ccc(Cl)c(OCC4CC4)c3)cc2c(=O)[nH]1
a: 1860

---

Assay Remarks: Volume of distribution in rat at 1 mg/kg, iv
Type: ADME, organism-based
Parameters: dose 1 mg/kg, route intravenous
Condition Notes: Wistar Han, in vivo, read-out: Vdss
Observation Type: Vd (L/kg)
Use L/kg as the unit, but write only the number.

q: Report measured Vd; entry is Cc1nc2cc(C(C)C)c(-c3ccc(Cl)c(OCC4CC4)c3)cc2c(=O)[nH]1
a: 1.55

---

Assay Remarks: Plasma concentration in rat at 3 mg/kg, po after 24 hrs
Format: ADME, organism-based
Design: dose 3 mg/kg, route oral
Condition Notes: Wistar Han
Observation Type: concentration at 24 h (nM)
Use nM as the unit, but write only the number.

q: Report measured concentration at 24 h; entry is Cc1nc2cc(C(C)C)c(-c3ccc(Cl)c(OCC4CC4)c3)cc2c(=O)[nH]1
a: 53

---

Assay Remarks: Plasma concentration in rat at 3 mg/kg, po after 0.5 hrs
Format: ADME, organism-based
Set-up: dose 3 mg/kg, route oral
Condition Notes: Wistar Han
Observation Type: concentration at 0.5 h (nM)
Use nM as the unit, but write only the number.

q: Report measured concentration at 0.5 h; entry is Cc1nc2cc(C(C)C)c(-c3ccc(Cl)c(OCC4CC4)c3)cc2c(=O)[nH]1
a: 599

---

Assay Remarks: Tmax in rat brain at 1 mg/kg, iv
Type: ADME, organism-based
Parameters: dose 1 mg/kg, route intravenous
Condition Notes: Wistar Han
Observation Type: Tmax (min)
Use min as the unit, but write only the number.

q: Report measured Tmax; entry is Cc1nc2cc(C(C)C)c(-c3ccc(Cl)c(OCC4CC4)c3)cc2c(=O)[nH]1
a: 30

---

Assay Remarks: Plasma concentration in rat at 1 mg/kg, iv after 1 hrs
Format: ADME, organism-based
Design: dose 1 mg/kg, route intravenous
Condition Notes: Wistar Han
Observation Type: concentration at 1 h

q: Report measured concentration at 1 h; entry is Cc1nc2cc(C(C)C)c(-c3ccc(Cl)c(OCC4CC4)c3)cc2c(=O)[nH]1
a: 1330 nM

---

Assay Remarks: Plasma concentration in rat at 10 mg/kg, po after 2 hrs
Assay type: ADME, organism-based
Parameters: dose 10 mg/kg, route oral
Condition Notes: Wistar Han
Observation Type: concentration at 2 h (µM)
Use µM as the unit, but write only the number.

q: Report measured concentration at 2 h; entry is Cc1nc2cc(C(C)C)c(-c3ccc(Cl)c(OCC4CC4)c3)cc2c(=O)[nH]1
a: 4.34

---

Assay Remarks: Plasma concentration in rat at 10 mg/kg, po after 1 hrs
Assay type: ADME, organism-based
Design: dose 10 mg/kg, route oral
Condition Notes: Wistar Han
Observation Type: concentration at 1 h (nM)
Use nM as the unit, but write only the number.

q: Report measured concentration at 1 h; entry is Cc1nc2cc(C(C)C)c(-c3ccc(Cl)c(OCC4CC4)c3)cc2c(=O)[nH]1
a: 2680

---

Assay Remarks: Plasma concentration in rat at 3 mg/kg, po after 0.16 hrs
Format: ADME, organism-based
Set-up: dose 3 mg/kg, route oral
Condition Notes: Wistar Han
Observation Type: concentration at 0.16 h (nM)
Use nM as the unit, but write only the number.

q: Report measured concentration at 0.16 h; entry is Cc1nc2cc(C(C)C)c(-c3ccc(Cl)c(OCC4CC4)c3)cc2c(=O)[nH]1
a: 60

---

Assay Remarks: Aqueous solubility at pH 6.8 and 25 degC
Format: physicochemical
Condition Notes: aqueous medium
Observation Type: solubility (µg/mL)
Use µg/mL as the unit, but write only the number.

Example entries and their recorded answers appear below.
Molecule Smiles	solubility [µg/mL]
Cc1nc2cc(C(C)C)c(-c3ccc(Cl)c(OCC4CC4)c3)cc2c(=O)[nH]1	0.8
Cc1nc2cc(C(C)C)c(-c3ccc(Cl)cc3)cc2c(=O)[nH]1	4

Proceeding to the next molecule to report its solubility.
q: Report measured solubility; entry is CC(C)(C)c1nc2[nH]c(=S)[nH]c(=O)c2cc1-c1ccc(Cl)cc1
a: 0.15

---

Assay Remarks: Half life in rat at 3 mg/kg, po
Assay type: ADME, organism-based
Design: dose 3 mg/kg, route oral
Condition Notes: Wistar Han, in vivo
Observation Type: half-life (h)
Use h as the unit, but write only the number.

q: Report measured half-life; entry is CC(C)(C)c1nc2[nH]c(=S)[nH]c(=O)c2cc1-c1ccc(Cl)cc1
a: 7.5

---

Assayed System: Transient receptor potential cation channel subfamily V member 1 (Homo sapiens, UniProt Q8NER1)
Sequence (Q8NER1 whole entry): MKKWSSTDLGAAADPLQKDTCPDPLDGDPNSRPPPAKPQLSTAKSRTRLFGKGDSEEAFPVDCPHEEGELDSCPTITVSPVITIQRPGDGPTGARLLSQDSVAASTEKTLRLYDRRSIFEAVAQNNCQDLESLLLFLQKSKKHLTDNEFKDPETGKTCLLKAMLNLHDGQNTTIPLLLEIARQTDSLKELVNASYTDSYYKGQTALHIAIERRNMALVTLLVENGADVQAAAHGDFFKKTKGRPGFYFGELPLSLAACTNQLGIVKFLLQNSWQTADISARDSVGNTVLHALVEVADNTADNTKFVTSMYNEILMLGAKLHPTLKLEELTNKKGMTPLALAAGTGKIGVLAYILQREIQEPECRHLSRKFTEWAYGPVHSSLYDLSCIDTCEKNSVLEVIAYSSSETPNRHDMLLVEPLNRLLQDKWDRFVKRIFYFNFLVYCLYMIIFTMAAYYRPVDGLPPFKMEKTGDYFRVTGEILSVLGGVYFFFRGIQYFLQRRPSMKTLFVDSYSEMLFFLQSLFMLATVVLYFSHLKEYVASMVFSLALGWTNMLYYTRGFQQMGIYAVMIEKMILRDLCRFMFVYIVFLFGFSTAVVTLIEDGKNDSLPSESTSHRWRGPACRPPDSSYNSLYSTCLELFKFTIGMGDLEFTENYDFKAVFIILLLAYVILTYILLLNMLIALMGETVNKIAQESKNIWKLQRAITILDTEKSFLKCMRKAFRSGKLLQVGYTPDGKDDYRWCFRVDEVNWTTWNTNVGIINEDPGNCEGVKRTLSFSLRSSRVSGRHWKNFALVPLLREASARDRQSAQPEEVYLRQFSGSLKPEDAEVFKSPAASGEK
Assay Remarks: Inhibition of calcium influx evoked by capsaicin in human TRPV1 expressing cells by fluorescence assay
Assay type: functional
Observation Type: IC50

Example entries and their recorded answers appear below.
Molecule Smiles	Observed Measurement
COc1cc(Cl)cc(-c2cc3c(O)nc(C)nc3cc2C(C)C)c1	100 nM
CC(C)(C)c1nc2[nH]c(=S)[nH]c(=O)c2cc1-c1ccccc1	100 nM

Proceeding to the next molecule to report its IC50.
q: Report measured IC50; entry is CC(C)c1cc2nc(N)[nH]c(=O)c2cc1-c1ccc(Cl)cc1
a: 133 nM
